# ASSAY PROCEDURE: Blood-brain distribution in DPNP model rats
# STATED CONDITIONS: SD, rat, plasma, oral, 0.5 mg/kg
TEST READOUT: concentration at 6 h (ng/mL)
Reply numerically in ng/mL, unit not repeated.

Q: Given CC(C)C[C@](C)(N)COc1ccc(-c2c[nH]c3ncc(F)cc23)nc1C(F)F , state its recorded concentration at 6 h.
Result: 38.5

----------
# TARGET ENTITY: AAK1 (30-330) protein (Homo sapiens)
# Construct: (His)6x (N); TEV protease cleavage site (N)
# ASSAY PROCEDURE: AAK1 kinase assay (ADP generated, detected by HPLC)
# STATED CONDITIONS: 3.5 nM AAK1, 22 µM ATP, 25°C, 3 h
# IC50 per record follows
The response must be a number in nM with no trailing unit.

MOLECULE | IC50 [nM]
CC(C)C[C@@](C)(N)COc1ccc(-c2c[nH]c3nc(C(F)(F)F)ccc23)nc1C(F)F | 86.1
CC(C)C[C@](C)(N)COc1ccc(-c2cncc3[nH]c(C(F)(F)F)nc23)nc1C(F)F | 99.2
CC(C)C[C@](C)(N)COc1ccc(-c2ccnc3[nH]cnc23)nc1C(F)F | 75.2
CC(C)C[C@@](C)(N)COc1ccc(-c2c[nH]c3ncccc23)nc1C(F)F | 28.3
CC(C)C[C@](C)(N)COc1ccc(-c2ccnc(C(F)F)c2)nc1C(F)F [BMS-986176, reference compound] | 260

Q: Name the recorded IC50 for CC(C)C[C@](C)(N)COc1ccc(-c2c[nH]c3ncc(C(F)F)cc23)cc1C(F)(F)F .
Result: 69.5

Q: Need IC50, item CC(C)C[C@](C)(N)COc1ccc(-c2c[nH]c3ncc(Cl)cc23)nc1C(F)F
Result: 8.2

Q: Fill in the blank: the reported IC50 of CC(C)C[C@](C)(N)COc1ncc(-c2c[nH]c3ncc(C(F)F)cc23)c(C(F)(F)F)n1 is ____.
Result: 101

----------
# ASSAY PROCEDURE: Pharmacokinetic test in SD rats
# STATED CONDITIONS: male, SD, rat, plasma, po, 3 mg/kg
TEST READOUT: AUC(0-inf) (ng·h/mL)
Give the number; ng·h/mL is assumed, so skip it.

Q: Using the record for CC(C)C[C@](C)(N)COc1ccc(-c2c[nH]c3ncc(F)cc23)nc1C(F)F , report its AUC(0-inf).
Result: 4130

----------
# ASSAY PROCEDURE: Blood-brain distribution in DPNP model rats
# STATED CONDITIONS: SD, rat, plasma, oral, 1 mg/kg
TEST READOUT: concentration at 6 h (ng/mL)
Lab book: enter the figure in ng/mL, no units written.

Q: Would you kindly share the measured concentration at 6 h for CC(C)C[C@](C)(N)COc1ccc(-c2c[nH]c3ncc(F)cc23)nc1C(F)F ?
Result: 75.3

----------
# TARGET ENTITY: AAK1 (Homo sapiens, UniProt Q2M2I8)
# Construct: HA; expressed in transfected cells; host or cells: 293T cells
# Sequence (Q2M2I8 whole entry): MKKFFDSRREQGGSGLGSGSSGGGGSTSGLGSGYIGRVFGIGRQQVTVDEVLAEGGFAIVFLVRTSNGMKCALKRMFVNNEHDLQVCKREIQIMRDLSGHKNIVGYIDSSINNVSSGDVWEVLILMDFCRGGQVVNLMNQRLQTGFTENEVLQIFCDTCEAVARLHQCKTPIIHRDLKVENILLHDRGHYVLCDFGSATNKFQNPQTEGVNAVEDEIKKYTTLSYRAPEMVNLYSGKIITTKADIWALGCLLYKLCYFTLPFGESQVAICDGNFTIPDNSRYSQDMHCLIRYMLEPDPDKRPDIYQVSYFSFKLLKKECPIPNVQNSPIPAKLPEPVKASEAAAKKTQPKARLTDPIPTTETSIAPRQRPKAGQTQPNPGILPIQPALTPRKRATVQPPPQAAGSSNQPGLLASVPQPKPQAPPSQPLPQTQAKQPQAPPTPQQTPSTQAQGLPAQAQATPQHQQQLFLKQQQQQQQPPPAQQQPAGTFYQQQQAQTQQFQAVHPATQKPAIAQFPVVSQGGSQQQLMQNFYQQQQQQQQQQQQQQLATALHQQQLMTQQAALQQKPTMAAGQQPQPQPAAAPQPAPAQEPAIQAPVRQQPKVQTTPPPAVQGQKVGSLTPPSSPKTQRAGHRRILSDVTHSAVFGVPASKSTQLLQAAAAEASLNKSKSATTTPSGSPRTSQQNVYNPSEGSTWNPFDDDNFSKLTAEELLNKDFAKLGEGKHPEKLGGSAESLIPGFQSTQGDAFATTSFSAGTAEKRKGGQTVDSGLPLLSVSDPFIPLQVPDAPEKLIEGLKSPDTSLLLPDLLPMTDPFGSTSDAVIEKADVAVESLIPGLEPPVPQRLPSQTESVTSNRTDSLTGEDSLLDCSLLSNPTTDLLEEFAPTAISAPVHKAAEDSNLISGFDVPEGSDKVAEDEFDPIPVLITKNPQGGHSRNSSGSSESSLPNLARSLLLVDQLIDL
# ASSAY PROCEDURE: Effect on AP2M1 phosphorylation in 293T cells co-transfected with AAK1 and AP2M1 (Western blot, anti-p-AP2M1)
# Assay type: cell-based
# STATED CONDITIONS: p-AP2M1 level, incubated 3 h
# Protocol: Experimental objective: The objective of this test example is to determine the effect of compounds on AP2M1 phosphorylation in cells. Background principle: Adaptor-associated kinase 1 (AAK1), also known as AP2-associated kinase 1, is a 104 kDa serine/threonine kinase. […] The inhibitory effect of compounds on AAK1 was evaluated by detecting the phosphorylation level of AP2M1 in cells, so as to screen candidate compounds. […]
TEST READOUT: IC50

COMPOUND | RESULT
CC(C)C[C@](C)(N)COc1ccc(-c2ccnc3c(F)cnn23)nc1C(F)F | 10 to 100 nM
CC(C)C[C@@](C)(N)COc1ccc(-c2ccnc3[nH]c(C(F)(F)F)nc23)nc1C(F)F | 10 to 100 nM
CC(C)C[C@](C)(N)COc1ncc(-c2c[nH]c3ncc(C(F)F)cc23)c(C(F)(F)F)n1 | 10 to 100 nM
CC(C)C[C@@](C)(N)COc1ccc(-c2ccnc3c2nc(C(F)(F)F)n3C)nc1C(F)F | 10 to 100 nM
CC(C)C[C@@](C)(N)COc1ccc(-c2c[nH]c3nc(F)ccc23)nc1C(F)F | 10 to 100 nM
CC(C)C[C@@](C)(N)COc1ccc(-c2ccnc3[nH]cnc23)nc1C(F)F | 10 to 100 nM
CC(C)C[C@@](C)(N)COc1ccc(-c2ccnc3ccnn23)nc1C(F)F | 10 to 100 nM
CC(C)C[C@](C)(N)COc1ccc(-c2ccnc3[nH]cnc23)nc1C(F)F | 10 to 100 nM
CC(C)C[C@](C)(N)COc1ccc(-c2c[nH]c3ncc(C#N)cc23)nc1C(F)F | 100 to 1000 nM
CC(C)C[C@](C)(N)COc1ccc(-c2c[nH]c3ncc(F)cc23)nc1C(F)F | 10 to 100 nM

Q: Need IC50, item CC(C)C[C@](C)(N)COc1ccc(-c2c[nH]c3ncc(Cl)cc23)nc1C(F)F
Result: < 10 nM

Q: What value of IC50 has been reported for the following compound? CC(C)C[C@](C)(N)COc1ccc(-c2c[nH]c3ncccc23)nc1C(F)F
Result: 10 to 100 nM

Q: Given CC(C)C[C@](C)(N)COc1ccc(-c2c[nH]c3nc(F)ccc23)nc1C(F)F , state its recorded IC50.
Result: 10 to 100 nM

Q: Can you share its IC50? I mean this compound: Cc1nc2ccnn2c(-c2ccc(OC[C@@](C)(N)CC(C)C)c(C(F)F)n2)c1F
Result: 10 to 100 nM

Q: Returns the measured IC50 for the input compound. Input: Cc1cnc2[nH]cc(-c3ccc(OC[C@@](C)(N)CC(C)C)c(C(F)F)n3)c2c1 [Compound 45, diformate]
Result: < 10 nM

----------
# ASSAY PROCEDURE: Pharmacokinetic test in SD rats
# STATED CONDITIONS: male, SD, rat, plasma, po, 3 mg/kg
TEST READOUT: MRT last (h)
Report only the number, with the unit h understood.

Q: Please look up its MRT last: CC(C)C[C@](C)(N)COc1ccc(-c2c[nH]c3ncc(F)cc23)nc1C(F)F [Compound 26]
Result: 8.09

----------
# ASSAY PROCEDURE: Blood-brain distribution in DPNP model rats
# STATED CONDITIONS: rat, brain, po, 1 mg/kg
TEST READOUT: Kp at 6 h
Just the number, please.

Q: Recorded Kp at 6 h of CC(C)C[C@](C)(N)COc1ccc(-c2ccnc(C(F)F)c2)nc1C(F)F [BMS-986176, reference compound] , please.
Result: 8.62

----------
Collected IC50 values appear next to each entry.
# TARGET ENTITY: AAK1 (30-330) protein (Homo sapiens, UniProt Q2M2I8)
# Construct: (His)6x (N); TEV protease cleavage site (N)
# Sequence (Q2M2I8 30-330): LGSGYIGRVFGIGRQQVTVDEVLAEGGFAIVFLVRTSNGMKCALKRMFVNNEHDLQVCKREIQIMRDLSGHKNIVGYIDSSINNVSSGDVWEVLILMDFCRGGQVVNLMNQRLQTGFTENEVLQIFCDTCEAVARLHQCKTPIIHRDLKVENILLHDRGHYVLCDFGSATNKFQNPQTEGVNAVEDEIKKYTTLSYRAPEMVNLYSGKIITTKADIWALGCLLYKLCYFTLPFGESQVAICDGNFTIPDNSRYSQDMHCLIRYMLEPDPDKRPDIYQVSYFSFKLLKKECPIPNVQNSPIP
# ASSAY PROCEDURE: AAK1 kinase assay (ADP generated, detected by HPLC)
# STATED CONDITIONS: 3.5 nM AAK1, 22 µM ATP, 25°C, 3 h
Structures can show the parent of a compound that is named as a salt.
A number alone suffices; assume nM.

// known answers, use as guide
COMPOUND | TEST READOUT | NUMERIC RESULT
CC(C)C[C@@](C)(N)COc1ccc(-c2ccnc3c(F)cnn23)nc1C(F)F | IC50 | 87.3
CC(C)C[C@@](C)(N)COc1ccc(-c2ccnc3[nH]cnc23)nc1C(F)F | IC50 | 101
CC(C)C[C@](C)(N)COc1ccc(-c2c[nH]c3ncccc23)nc1C(F)F | IC50 | 21.2
CC(C)C[C@@](C)(N)COc1ccc(-c2c[nH]c3nc(F)ccc23)nc1C(F)F | IC50 | 111
CC(C)C[C@@](C)(N)COc1ccc(-c2cncc3[nH]c(C(F)(F)F)nc23)nc1C(F)F | IC50 | 168
CC(C)C[C@](C)(N)COc1ccc(-c2ccnc3c(F)cnn23)nc1C(F)F | IC50 | 42.5

Q: Which IC50 is reported with AAK1 (30-330) protein (Homo sapiens, UniProt Q2M2I8) for this entry: CC(C)C[C@](C)(N)COc1ccc(-c2cn(C)c3ncc(F)cc23)nc1C(F)F ?
Result: 12.1

Q: IC50 of COc1ccnc2[nH]cc(-c3ccc(OC[C@](C)(N)CC(C)C)c(C(F)F)n3)c12 on AAK1 (30-330) protein (Homo sapiens, UniProt Q2M2I8)?
Result: 56.9

Q: # value lookup — system AAK1 (30-330) protein (Homo sapiens, UniProt Q2M2I8), readout IC50, item CC(C)C[C@](C)(N)COc1ccc(-c2ccnc3c2nc(C(F)(F)F)n3C)nc1C(F)F
Result: 152

Q: Fill in the recorded IC50 for this compound, with AAK1 (30-330) protein (Homo sapiens, UniProt Q2M2I8) as test system: COc1ccnc2[nH]cc(-c3ccc(OC[C@@](C)(N)CC(C)C)c(C(F)F)n3)c12 [Compound 16, tris(trifluoroacetate)]
Result: 87.2

Q: For AAK1 (30-330) protein (Homo sapiens, UniProt Q2M2I8), provide IC50 of Cc1nc2ccnn2c(-c2ccc(OC[C@@](C)(N)CC(C)C)c(C(F)F)n2)c1F please.
Result: 102

Q: Short answer please: IC50, AAK1 (30-330) protein (Homo sapiens, UniProt Q2M2I8), entry CC(C)C[C@](C)(N)COc1ccc(-c2c[nH]c3nc(F)ccc23)nc1C(F)F
Result: 102

Q: Reported IC50 for AAK1 (30-330) protein (Homo sapiens, UniProt Q2M2I8), given CC(C)C[C@](C)(N)COc1ccc(-c2c[nH]c3ncc(C#N)cc23)nc1C(F)F ?
Result: 57.8

Q: // map CC(C)C[C@@](C)(N)COc1ccc(-c2ccnc3c2nc(C(F)(F)F)n3C)nc1C(F)F to recorded IC50 (system: AAK1 (30-330) protein (Homo sapiens, UniProt Q2M2I8))
Result: 123

Q: Identify the measured IC50 of CC(C)C[C@](C)(N)COc1ccc(-c2c[nH]c3ncc(C(F)F)cc23)nc1C(F)F [Compound 28, formate] for AAK1 (30-330) protein (Homo sapiens, UniProt Q2M2I8).
Result: 65.3

Q: Lab note: need IC50 with AAK1 (30-330) protein (Homo sapiens, UniProt Q2M2I8) for entry Cc1nc2ccnn2c(-c2ccc(OC[C@](C)(N)CC(C)C)c(C(F)F)n2)c1F , please look it up.
Result: 190
